# tested_system: glucagon receptor (UniProt P47871 26-477, limits assumed)
# Sequence (P47871 26-477 limits assumed): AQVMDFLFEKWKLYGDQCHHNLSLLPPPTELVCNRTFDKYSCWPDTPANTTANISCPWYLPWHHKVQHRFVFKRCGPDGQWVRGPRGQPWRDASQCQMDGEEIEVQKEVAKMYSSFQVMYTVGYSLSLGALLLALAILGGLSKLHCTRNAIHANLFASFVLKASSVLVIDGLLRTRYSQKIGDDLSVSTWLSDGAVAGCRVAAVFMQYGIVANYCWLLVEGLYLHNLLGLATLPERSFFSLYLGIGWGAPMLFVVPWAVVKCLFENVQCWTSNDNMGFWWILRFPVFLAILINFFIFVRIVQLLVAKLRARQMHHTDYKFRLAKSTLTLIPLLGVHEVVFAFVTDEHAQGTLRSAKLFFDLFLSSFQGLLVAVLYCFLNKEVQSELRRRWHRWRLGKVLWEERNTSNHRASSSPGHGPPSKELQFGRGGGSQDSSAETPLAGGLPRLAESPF
# test_summary: cell-based or functional assay
Where no end group is shown, it is not given here. [ ]: non-standard residue; d: D form. The star is where a group is joined. PEG 40 kDa = PEG (40 kDa) covalently attached to Cys; Myristoyl = CCCCCCCCCCCCCC(=O)*; Aib = CC(C)(N)C(=O)O
Binary call on relative activity; Glucagon Receptor with cut-off 0.07%: strictly below means class 1, and equality or higher means class 0.

[ask] Does the reported relative activity; Glucagon Receptor of the following binder sit strictly below 0.07%? Y[Aib]EGTFTSDYSIYLDKQAA[Aib]EFVC(PEG 40 kDa)WLLAGGPSSGAPPPSK(Myristoyl)-NH2 [mt-353]
[reply] class 0

[ask] What would you report for YXEGTFTSDYSIYLDKQAAXEFVNWLLAGGPSSGAPPPSKC (AIB at position 20 (Example 25); other non-standard residues as in the sequence listing) [mt-344] ?
[reply] class 1

[ask] And for Y[Aib]EGTFTSDK(Myristoyl)SIYLDKQAA[Aib]EFVC(PEG 40 kDa)WLLAGGPSSGAPPPS-NH2 [mt-341] ?
[reply] class 1

[ask] And what about the binder HXQGTFTSDYSKYLDEQAAKEFICWLMNGGPSSGAPPPSK (listed among the acylated glucagon peptides in paragraph 284; non-standard residues as in the sequence listing) [mt-345] ?
[reply] class 0
